quantity: melting point

>>> recorded_value("CCCCNC(=O)Nc1cccc(-c2ccc(OC)c(S(=O)(=O)N[C@H](CC(=O)O)c3ccccc3)c2)c1")
"122 °C (dec.)"
>>> recorded_value("Cc1cc(C)c(S(=O)(=O)NC(Cc2cccc(-c3cccc(NC(=O)Nc4ccncc4)c3)c2)C(=O)O)c(C)c1 (centres unmarked)")
"207 °C"
>>> recorded_value("O=C(O)CC(NS(=O)(=O)c1cccc(-c2cccc(Nc3c(NC4CC4)c(=O)c3=O)c2)c1)c1ccccc1 (centres unmarked)")
"214 °C (dec.)"
>>> recorded_value("CCCCNC(=O)Nc1cccc(-c2cccc(S(=O)(=O)N[C@H](CC(=O)O)c3ccccc3)c2)c1")
"152 °C"
>>> recorded_value("COc1ccc(-c2cccc(NC(=O)NCC(F)(F)F)c2)cc1S(=O)(=O)NC(CC(=O)O)c1ccccc1 (centres unmarked)")
"> 240 °C"
>>> recorded_value("COc1ccc(-c2cccc(NC(=O)NCc3ccc(F)cc3)c2)cc1S(=O)(=O)N[C@@H](CC(=O)O)c1ccccc1")
"162 °C"
>>> recorded_value("C[C@@H](NS(=O)(=O)c1cccc(-c2cccc(NC(=O)NCc3ccccn3)c2)c1)C(=O)O")
"149 °C"
>>> recorded_value("O=C(O)CC(NS(=O)(=O)c1cccc(-c2cccc(Nc3nccs3)c2)c1)c1ccccc1 (centres unmarked)")
"130 °C (dec.)"
>>> recorded_value("Cc1cc(C)c(S(=O)(=O)N[C@@H](Cc2ccc(-c3cccc(NC(=O)Nc4nc5ccc(C)cc5s4)c3)cc2)C(=O)O)c(C)c1")
"220 °C"
>>> recorded_value("CCCCNC(=O)Nc1cccc(-c2ccc(OC)c(S(=O)(=O)NC(CC(=O)O)c3ccccc3)c2)c1 (centres unmarked)")
"190 °C"
>>> recorded_value("O=C(O)[C@H](Cc1ccc(-c2cccc(CNc3ccccn3)c2)cc1)NS(=O)(=O)c1ccc(Cl)s1")
"> 240 °C"

----------
Recorded melting point values for a group of compounds are listed next.
quantity: melting point (°C)

>>> recorded_value("COc1ccc(-c2ccc(NC(=O)NC(C)C)cc2)cc1S(=O)(=O)NC(CC(=O)O)c1ccccc1 (stereo not shown)")
115
>>> recorded_value("O=C(O)CNS(=O)(=O)c1cccc(-c2cccc(NC(=O)Nc3nc4ccccc4[nH]3)c2)c1")
172
>>> recorded_value("Cc1cc(C)c(S(=O)(=O)N[C@@H](Cc2ccc(-c3cccc(N)c3)cc2)C(=O)O)c(C)c1")
289
>>> recorded_value("COc1ccc(-c2cccc(CNc3ccccn3)c2)cc1S(=O)(=O)NC(CC(=O)O)c1ccccc1 (stereo not shown)")
138

----------
quantity: melting point (°C)

>>> recorded_value("CN(CC(=O)O)S(=O)(=O)c1cccc(-c2cccc(NC(=O)N=c3[nH]c4ccccc4[nH]3)c2)c1 [Example 6.13]")
184
>>> recorded_value("Cc1cc(C)c(S(=O)(=O)NC(Cc2cccc(-c3ccc(NC(=O)N=c4[nH]c5ccccc5[nH]4)cc3)c2)C(=O)O)c(C)c1 (centres unmarked) [Example 1.202]")
193
>>> recorded_value("COc1ccc(-c2ccc(NC(=O)NCc3ccccn3)cc2)cc1S(=O)(=O)NC(CC(=O)O)c1ccccc1 (centres unmarked) [Example 4.69]")
158
>>> recorded_value("CCCNC(=O)Nc1cccc(-c2cccc(S(=O)(=O)N[C@H](C)C(=O)O)c2)c1 [Example 4.81]")
126
>>> recorded_value("COc1ccc(-c2cccc(NC(=O)NCC(F)(F)C(F)(F)F)c2)cc1S(=O)(=O)NC(CC(=O)O)c1ccccc1 (centres unmarked) [Example 4.85]")
147
>>> recorded_value("COc1ccc(-c2ccc(NC(=O)NCc3ccncc3)cc2)cc1S(=O)(=O)NC(CC(=O)O)c1ccccc1 (centres unmarked) [Example 4.66]")
145
>>> recorded_value("Cc1cc(C)c(S(=O)(=O)N[C@@H](Cc2ccc(-c3cccc(N/C(=C/[N+](=O)[O-])NC4CC4)c3)cc2)C(=O)O)c(C)c1 [Example 12.1.5]")
149
>>> recorded_value("O=C(O)C[C@@H](NS(=O)(=O)c1cccc(-c2cccc(NC(=O)N=c3[nH]c4ccccc4[nH]3)c2)c1)c1ccccc1 [Example 4.91]")
189
